Data provenance: patent US20110135573A1

# system under test: mouse MMP-2 (R&D Systems #924-MP-010) (mouse) (UniProt P33434)
# assay details: Ki,app, enzyme inhibition assay (fluorogenic peptide substrate), medium-scale sFab
endpoint label: pKi
pKi is defined as minus the log10 of a concentration measured in mol/L.

query: Retrieve pKi measured for M0276-F11 (Fab, V domains shown) VH: EVQLLESGGGLVQPGGSLRLSCAASGFTFSWYDMWWVRQAPGKGLEWVSVIYSSGGPTFYADSVKGRFTISRDNSKNTLYLQMNSLRAEDTAVYYCAKDRAYGDYVGWNGFDYWGQGTLVTVSS VL: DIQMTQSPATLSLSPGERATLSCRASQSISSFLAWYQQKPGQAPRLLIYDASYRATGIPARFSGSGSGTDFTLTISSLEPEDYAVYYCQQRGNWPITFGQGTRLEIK and print it.
result: 8.43

query: Retrieve pKi measured for M0301-D12 (Fab, V domains shown) VH: EVQLLESGGGLVQPGGSLRLSCAASGFTFSMYDMWWVRQAPGKGLEWVSVIYSSGGYTSYADSVKGRFTISRDNSKNTLYLQMNSLRAEDTAVYYCAKDRAYGDYVGWNGFDYWGQGTLVTVSS VL: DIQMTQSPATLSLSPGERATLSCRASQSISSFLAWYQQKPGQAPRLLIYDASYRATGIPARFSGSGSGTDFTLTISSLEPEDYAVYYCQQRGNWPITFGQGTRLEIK and print it.
result: 7.60

query: Retrieve pKi measured for M0275-D03 (Fab, V domains shown) VH: EVQLLESGGGLVQPGGSLRLSCAASGFTFSQYDMWWVRQAPGKGLEWVSVIYPSGTTFYADSVKGRFTISRDNSKNTLYLQMNSLRAEDTAVYYCAKDRAYGDYVGWNGFDYWGQGTLVTVSS VL: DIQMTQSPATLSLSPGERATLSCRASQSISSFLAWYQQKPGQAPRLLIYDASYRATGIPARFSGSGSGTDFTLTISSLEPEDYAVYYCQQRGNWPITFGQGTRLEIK and print it.
result: 8.27
